Source of measurements: PubChem BioAssay (NCATS)

assay: Quantitative High-Throughput drug screen in 47 multiple myeloma cell lines against the NCATS MIPE library collection: MM1R_ATCC cell viability assay (AID 1918981); conditions: MM1R multiple myeloma cells, CellTiter-Glo viability, 48 h; series mostly up to 45.8 µM; also: nearly all actives have a fitted effect of over 35% in size
Results filed as inconclusive are left out. Calls of active or inactive are those of the source. Calls follow the shape of the dose curve; as a rule, active = well fitted cell-killing curve with a large enough effect; inconclusive = small, poorly fitted or top-dose-only effect, or effect the other way; inactive = no such curve, though single readings can be large or run the other way.
Return exactly one item of y (active), n (inactive)

Recorded test outcome, item `NC(=O)c1ccc(N(C(N)=O)c2c(F)cccc2F)nc1-c1ccc(F)cc1F`
n

Lab log entry: `O=C1C(c2c(O)[nH]c3ccccc23)=Nc2ccccc21` — outcome as called in the assay?
y

What is the recorded call for this compound in the test? `C=CC[N+]1([C@H]2C[C@H]3[C@@H]4CC[C@H]5C[C@H](O)[C@@H](N6CCOCC6)C[C@]5(C)[C@@H]4CC[C@]3(C)[C@H]2OC(C)=O)CCCC1`
n

Dear all, I need the recorded test outcome for CC1(C)OC2CC3C4CC(F)C5=CC(=O)C=CC5(C)C4C(O)CC3(C)[C@]2(C(=O)CO)O1 (some centres undefined) , thank you.
n

Tell me the assay call for `O=C1NC(=O)C(c2cnc3ccccn23)=C1c1cn2c3c(cccc13)CN(C(=O)N1CCOCC1)CC2` please.
y

// param item: `Cc1cnc(CNC(=O)c2c(=O)c3ccc(N4CCCN(C)CC4)nc3n3c2sc2ccccc23)cn1` ; yields the recorded call
y

Test call for this compound, please: `CCC(=C(CC)c1ccc(O)cc1)c1ccc(O)cc1`
y

Which outcome was entered for the compound `O=C(c1ccc(C=Cc2n[nH]c3ccccc23)cc1)N1CCNCC1` in this test?
y

Tell me the assay call for `CN1CC(=O)NC1=NC(=O)Nc1cccc(Cl)c1` please.
y
